- PROTOCOL DESCRIPTION: blocking HSF1-driven luciferase expression – cell-based, NIH3T3, luminescence, primary screen (AID 2098);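 note: luciferase reports HSF-1 transcriptional activity via heat shock element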
- SETTINGS: NIH3T3-HGL HSE-luciferase, MG132-induced, luminescence 8 h; screened at 7.5 µM (by protocol)
Out of some 300,000 compounds screened, about 2,300 (0.77%) were called active.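 Rule for the calls: active = more than half of replicate wells show activity change below -50%, luminescence cut by over half; inconclusive = some wells, but at most half, below -50%; inactive = no replicate well below -50%.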 The sample holds actives, similar compounds and a random draw of the others, so the mix is not that of the screen.
Outcomes: active, inactive

{"columns": ["MOLECULE", "CATEGORY"],
 "data": [
  ["CC(=O)NC1CCN(CC(=O)Nc2nccs2)CC1", "inactive"],
  ["O=C(COC(=O)c1cccs1)Nc1ccccc1Cl", "inactive"],
  ["CC1CC(C)(C)CC2(C1)NC(=O)N(CC(=O)Nc1nccs1)C2=O (configuration not stated)", "inactive"],
  ["COC(=O)/C=C\\C(=O)Nc1cccc([N+](=O)[O-])c1", "active"],
  ["O=C(COc1ccccc1Cl)Nc1ccccc1C(=O)NC1CC1", "inactive"],
  ["O=C(O)CCn1c(Cc2ccccc2)nc2ccccc21", "inactive"],
  ["CC1CCN(CC(=O)Nc2nccs2)CC1", "active"],
  ["CCCC(=O)N1c2ccccc2NC2=C(C(=O)CCC2)C1c1ccc(F)cc1 (configuration not stated)", "inactive"],
  ["CN(/N=C/c1ccccc1)C(=S)c1ccccc1", "inactive"],
  ["O=C(Nc1cccnc1)c1cccc(S(=O)(=O)N2CCCC2)c1", "inactive"],
  ["COc1ccc(Cl)cc1C=CC=NNC(=O)c1ccncc1", "inactive"],
  ["Cc1ccc(C)c(OCCC(=O)OCC(=O)c2ccc3c(c2)NC(=O)CO3)c1", "inactive"]
]}
